System: MDA-MB-468
Test: Antiproliferative activity against human MDA-MB-468 cells assessed as cell growth inhibition after 4 days in presence of control siRNA for 3 days followed by compound treatment by WST-8 assay
Type: functional, cell-based
measure name: IC50

These recorded examples may help you get a feel for the data.
- molecule: "CNC(=O)[C@@H]1NC2(CCCCC2)[C@@]2(C(=O)Nc3cc(Cl)ccc32)[C@H]1c1cccc(Cl)c1F"
  measure name: "IC50"
  recorded value: "> 3000 nM"
- molecule: "O=C(O)c1ccc(NC(=O)[C@@H]2NC3(CCCCC3)[C@@]3(C(=O)Nc4cc(Cl)ccc43)[C@H]2c2cccc(Cl)c2F)cc1"
  measure name: "IC50"
  recorded value: "> 3000 nM"
- molecule: "O=C1CCC(N2Cc3c(CCCCCNC(=O)c4ccc(NC(=O)[C@@H]5NC6(CCCCC6)[C@@]6(C(=O)Nc7cc(Cl)ccc76)[C@H]5c5cccc(Cl)c5F)cc4)cccc3C2=O)C(=O)N1 (some centres undefined)"
  measure name: "IC50"
  recorded value: "> 3000 nM"

I am curious: what IC50 value has been reported for O=C1CCC(N2Cc3c(CCCCCNC(=O)[C@@H]4NC5(CCCCC5)[C@@]5(C(=O)Nc6cc(Cl)ccc65)[C@H]4c4cccc(Cl)c4F)cccc3C2=O)C(=O)N1 (some centres undefined) ?
62 nM

* * *

Biological target: Protein cereblon/Eukaryotic peptide chain release factor GTP-binding subunit ERF3A/DNA damage-binding protein 1/Cullin-4A (Homo sapiens) (UniProt Q96SW2+Q16531+Q13619+P15170)
Sequence (P15170 whole entry, looked up): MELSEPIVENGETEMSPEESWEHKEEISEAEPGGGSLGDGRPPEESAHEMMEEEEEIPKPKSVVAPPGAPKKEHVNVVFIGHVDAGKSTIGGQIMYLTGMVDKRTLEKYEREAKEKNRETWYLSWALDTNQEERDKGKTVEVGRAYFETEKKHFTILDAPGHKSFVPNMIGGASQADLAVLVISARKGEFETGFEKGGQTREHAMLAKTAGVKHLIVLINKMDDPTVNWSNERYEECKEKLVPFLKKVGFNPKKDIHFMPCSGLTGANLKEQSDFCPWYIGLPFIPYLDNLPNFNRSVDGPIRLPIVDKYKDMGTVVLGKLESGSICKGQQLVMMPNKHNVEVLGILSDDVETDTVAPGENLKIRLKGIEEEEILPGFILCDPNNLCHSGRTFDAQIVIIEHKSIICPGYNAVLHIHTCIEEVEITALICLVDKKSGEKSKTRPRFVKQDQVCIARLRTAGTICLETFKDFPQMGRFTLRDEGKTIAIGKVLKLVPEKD
Sequence (Q13619 whole entry, looked up): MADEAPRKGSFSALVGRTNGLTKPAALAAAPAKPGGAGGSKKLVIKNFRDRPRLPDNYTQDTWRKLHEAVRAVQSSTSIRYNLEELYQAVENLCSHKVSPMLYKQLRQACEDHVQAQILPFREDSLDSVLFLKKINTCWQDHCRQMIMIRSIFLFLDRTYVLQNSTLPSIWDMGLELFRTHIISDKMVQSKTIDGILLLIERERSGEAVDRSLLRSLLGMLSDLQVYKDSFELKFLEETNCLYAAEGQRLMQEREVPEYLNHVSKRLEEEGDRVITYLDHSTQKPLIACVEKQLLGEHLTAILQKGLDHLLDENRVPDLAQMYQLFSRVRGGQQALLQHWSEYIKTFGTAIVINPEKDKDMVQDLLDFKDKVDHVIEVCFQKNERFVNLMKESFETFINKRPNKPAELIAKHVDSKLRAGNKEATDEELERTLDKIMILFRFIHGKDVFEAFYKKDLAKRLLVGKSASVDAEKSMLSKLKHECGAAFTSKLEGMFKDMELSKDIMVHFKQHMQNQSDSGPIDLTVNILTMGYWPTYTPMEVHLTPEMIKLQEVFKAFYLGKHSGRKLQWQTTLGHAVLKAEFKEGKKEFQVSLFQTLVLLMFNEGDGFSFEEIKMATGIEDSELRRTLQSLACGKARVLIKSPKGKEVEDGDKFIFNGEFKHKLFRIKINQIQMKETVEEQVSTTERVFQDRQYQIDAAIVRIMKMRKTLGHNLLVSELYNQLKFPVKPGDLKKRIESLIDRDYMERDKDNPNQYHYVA
Sequence (Q16531 whole entry, looked up): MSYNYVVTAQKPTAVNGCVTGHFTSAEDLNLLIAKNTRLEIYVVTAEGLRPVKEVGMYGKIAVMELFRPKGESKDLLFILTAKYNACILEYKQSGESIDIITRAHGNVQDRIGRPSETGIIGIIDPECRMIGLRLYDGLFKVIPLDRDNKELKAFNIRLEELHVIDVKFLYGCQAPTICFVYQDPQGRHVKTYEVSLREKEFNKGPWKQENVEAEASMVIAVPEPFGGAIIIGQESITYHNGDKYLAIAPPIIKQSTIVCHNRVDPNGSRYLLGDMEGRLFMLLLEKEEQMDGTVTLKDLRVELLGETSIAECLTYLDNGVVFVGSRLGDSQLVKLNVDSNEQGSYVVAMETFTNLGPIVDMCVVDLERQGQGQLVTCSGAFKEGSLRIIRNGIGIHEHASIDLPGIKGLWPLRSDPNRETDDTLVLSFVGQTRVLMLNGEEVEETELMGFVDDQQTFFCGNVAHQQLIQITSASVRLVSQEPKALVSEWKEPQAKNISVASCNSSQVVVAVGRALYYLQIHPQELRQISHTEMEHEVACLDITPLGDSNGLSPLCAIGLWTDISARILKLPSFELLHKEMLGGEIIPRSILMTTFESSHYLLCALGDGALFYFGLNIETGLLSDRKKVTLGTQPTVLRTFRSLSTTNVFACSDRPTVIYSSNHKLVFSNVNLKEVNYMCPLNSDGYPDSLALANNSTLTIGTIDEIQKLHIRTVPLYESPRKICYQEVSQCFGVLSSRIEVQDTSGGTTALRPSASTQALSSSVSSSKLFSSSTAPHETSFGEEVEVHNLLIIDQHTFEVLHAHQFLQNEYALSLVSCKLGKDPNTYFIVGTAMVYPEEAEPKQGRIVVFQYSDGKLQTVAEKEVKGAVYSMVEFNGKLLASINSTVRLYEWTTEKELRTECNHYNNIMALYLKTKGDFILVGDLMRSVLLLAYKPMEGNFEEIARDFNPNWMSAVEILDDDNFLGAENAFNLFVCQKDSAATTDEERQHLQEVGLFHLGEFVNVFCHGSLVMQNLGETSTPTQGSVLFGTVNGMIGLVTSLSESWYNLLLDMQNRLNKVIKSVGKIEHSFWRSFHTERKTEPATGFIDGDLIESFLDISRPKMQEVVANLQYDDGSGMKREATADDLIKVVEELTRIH
Sequence (Q96SW2 whole entry, looked up): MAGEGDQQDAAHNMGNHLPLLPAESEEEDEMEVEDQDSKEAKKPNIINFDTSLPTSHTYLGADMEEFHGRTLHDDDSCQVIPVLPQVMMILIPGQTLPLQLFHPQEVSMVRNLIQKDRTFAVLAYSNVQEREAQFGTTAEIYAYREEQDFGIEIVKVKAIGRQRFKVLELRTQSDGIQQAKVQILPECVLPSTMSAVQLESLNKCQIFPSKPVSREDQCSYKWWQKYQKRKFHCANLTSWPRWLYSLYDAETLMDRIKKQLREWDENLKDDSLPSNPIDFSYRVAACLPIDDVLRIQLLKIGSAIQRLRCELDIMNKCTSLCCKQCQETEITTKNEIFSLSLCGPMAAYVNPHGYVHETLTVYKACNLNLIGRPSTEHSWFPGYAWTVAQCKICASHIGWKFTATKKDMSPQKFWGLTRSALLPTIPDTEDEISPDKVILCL
Test: Protac activity at GSPT1/CUL4/DDB1/CRBN in human RS4:11/IRMI-2 cells harboring p53 hotspot mutation Y236H/R249G assessed as decrease in GSPT1 protein level after 2 hrs by Western blot analysis
Type: cell-based
Active and inactive are the calls of the source. No cut-off for these calls is given here.
Please state which outcome applies, choosing from Yes (active), No (inactive)

Worked examples, 4 molecules total:
- molecule: "CNC(=O)[C@@H]1NC2(CCCCC2)[C@@]2(C(=O)Nc3cc(Cl)ccc32)[C@H]1c1cccc(Cl)c1F"
  class label: "No"
- molecule: "O=C1CCC(N2Cc3c(CCCOCCOCCNC(=O)[C@@H]4NC5(CCCCC5)[C@@]5(C(=O)Nc6cc(Cl)ccc65)[C@H]4c4cccc(Cl)c4F)cccc3C2=O)C(=O)N1 (stereo partly specified)"
  class label: "Yes"
- molecule: "O=C1CCC(N2Cc3c(CCCCCNC(=O)[C@@H]4NC5(CCCCC5)[C@@]5(C(=O)Nc6cc(Cl)ccc65)[C@H]4c4cccc(Cl)c4F)cccc3C2=O)C(=O)N1 (stereo partly specified)"
  class label: "Yes"
- molecule: "O=C1CCC(N2Cc3c(CCCOCCOCCOCCNC(=O)[C@@H]4NC5(CCCCC5)[C@@]5(C(=O)Nc6cc(Cl)ccc65)[C@H]4c4cccc(Cl)c4F)cccc3C2=O)C(=O)N1 (stereo partly specified)"
  class label: "Yes"

Status in this test for O=C1CCC(N2Cc3c(CCCOCCNC(=O)[C@@H]4NC5(CCCCC5)[C@@]5(C(=O)Nc6cc(Cl)ccc65)[C@H]4c4cccc(Cl)c4F)cccc3C2=O)C(=O)N1 (stereo partly specified) ?
Yes

Proceed to O=C1CCC(N2Cc3c(CCCCNC(=O)[C@@H]4NC5(CCCCC5)[C@@]5(C(=O)Nc6cc(Cl)ccc65)[C@H]4c4cccc(Cl)c4F)cccc3C2=O)C(=O)N1 (stereo partly specified)
Yes
